- Assay Target: Plasma kallikrein (Homo sapiens, UniProt P03952)
- Sequence (P03952 20-390 limits assumed): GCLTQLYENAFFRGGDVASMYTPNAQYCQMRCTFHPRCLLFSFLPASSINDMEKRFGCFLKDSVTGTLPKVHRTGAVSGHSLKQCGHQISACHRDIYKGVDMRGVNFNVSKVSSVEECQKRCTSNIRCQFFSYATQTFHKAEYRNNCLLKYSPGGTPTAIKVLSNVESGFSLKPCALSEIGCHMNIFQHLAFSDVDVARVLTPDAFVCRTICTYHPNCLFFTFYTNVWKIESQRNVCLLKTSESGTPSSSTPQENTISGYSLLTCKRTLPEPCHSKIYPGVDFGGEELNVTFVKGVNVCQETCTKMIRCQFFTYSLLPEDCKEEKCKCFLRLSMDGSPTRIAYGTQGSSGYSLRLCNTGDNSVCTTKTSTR
- Sequence (P03952 391-638 limits assumed): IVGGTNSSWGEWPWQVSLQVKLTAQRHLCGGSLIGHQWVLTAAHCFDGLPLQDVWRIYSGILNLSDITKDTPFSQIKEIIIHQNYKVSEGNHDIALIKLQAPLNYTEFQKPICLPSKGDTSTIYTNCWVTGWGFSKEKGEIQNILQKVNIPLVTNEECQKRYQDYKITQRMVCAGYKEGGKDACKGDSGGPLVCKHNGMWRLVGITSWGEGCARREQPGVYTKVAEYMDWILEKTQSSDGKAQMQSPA
- Test Protocol: Inhibition of plasma kallikrein (unknown origin)
Property: IC50 (nM)
Use nM as the unit, but write only the number.

Input line: Assign IC50 to the following record: N#Cc1cccc([C@@H](NCC2CC2)c2ccc(F)c(NC(=O)c3cc(C(F)(F)F)nn3-c3cccc(CN)c3)c2)c1
Output line: 1

----------
- Test Protocol: Inhibition of GABA receptor BZ domain (unknown origin)
- Parameters: species or system Homo sapiens
Property: IC50 (nM)
// units = nM; emit number, no label

Input line: Identify measured IC50 corresponding to CCN(C(C)=O)c1cccc(-c2ccnc3c(C#N)cnn23)c1
Output line: 167
